# Test system: UO-31 renal
# assay_summary: NCI tumour cell line growth inhibition, 48 h; in the data active = GI50 below about 0.43 µM; inactive = the rest
Permitted responses: yes (1) (active), no (0) (inactive)

Input: Assay outcome for C=CC(C=O)C1(O)CCOC(=O)/C1=C\N (stereo not drawn) : what was it?
Output: no (0)

Input: Then this compound: CC/C(=C(/CC)c1ccc([O-])cc1)c1ccc([O-])cc1.CC/C(=C(\CC)c1ccc([O-])cc1)c1ccc([O-])cc1.O=C([CH-]C(=O)c1ccccc1)c1ccccc1.O=C([CH-]C(=O)c1ccccc1)c1ccccc1.O=C([CH-]C(=O)c1ccccc1)c1ccccc1.O=C([CH-]C(=O)c1ccccc1)c1ccccc1.[Ti+4].[Ti+4]
Output: no (0)

Input: Then this compound: CN(C)CCOc1ccc(/C(=C(/CCCl)c2ccccc2)c2ccccc2)cc1
Output: no (0)

Input: Then this compound: Oc1ccc(O)c(-c2cc(-c3ccccc3)nn2-c2ccccc2)c1
Output: no (0)

Input: Then this compound: O=C(Nc1ccc(Cl)cc1F)c1cc(I)ccc1O
Output: yes (1)

Input: Then this compound: O=C(CN1CCN(c2ccc(Cl)cc2)CC1)N1CCN(c2nnc(-c3ccc(Cl)cc3)c(-c3ccc(Cl)cc3)n2)CC1
Output: no (0)

Input: Then this compound: CCN1C(=O)NC(=O)C(C)(N2C(=O)c3c(F)c(F)c(F)c(F)c3C2=O)C1=O (stereo not drawn)
Output: no (0)

Input: Then this compound: COc1cccc2c1-c1c(c3ccc([N+](=O)[O-])cc3c(=O)n1CCCCl)C2=O
Output: no (0)

Input: Then this compound: O=C(Nc1cccc(Oc2nnc(Cl)c3ccccc23)c1)Nc1ccc(Cl)c(C(F)(F)F)c1
Output: yes (1)

Input: Then this compound: CCOC(=O)/C=C/c1cc2cc(-c3csc4ccccc34)ccc2[nH]1
Output: no (0)

Input: Then this compound: CN(C)c1ncnc2c1nnn2C1OC(CO)C(O)C1O (stereo not drawn)
Output: yes (1)

Input: Then this compound: CC1CCN(CCCCCOc2ccc3oc4cc(Cl)ccc4c(=O)c3c2)CC1
Output: no (0)

Input: Then this compound: COc1cnc2c(c1)C(=O)c1c-2n(CCCN2CCC(O)CC2)c(=O)c2cc(F)ccc12
Output: yes (1)

Input: Then this compound: N#Cc1ccc(N2Cc3ccccc3OC3=C2C(=O)c2c(O)ccc(O)c2C3=O)cc1
Output: yes (1)

Input: Then this compound: CC(=O)O[C@H](C[C@H](C(C)C)N(C)C(=O)[C@@H](NC(=O)[C@H]1CCCCN1C)C(C)C)c1nc(C(=O)N[C@@H](Cc2ccccc2)C[C@H](C)C(=O)O)c(C(C)C)s1
Output: yes (1)

Input: Then this compound: C=CC[P+](c1ccccc1)(c1ccccc1)c1ccccc1
Output: no (0)

Input: Then this compound: CCOC(=O)c1c2c(n(Cc3ccccc3)c1C)-c1ccccc1C(=O)C2=O
Output: no (0)

Input: Then this compound: CN(C)c1ccc(/C=C(\C#N)c2nc3ccccc3n2C)cc1
Output: no (0)

---

# Test system: NCI-H23 lung
# assay_summary: NCI tumour cell line growth inhibition, 48 h; in the data active = GI50 below about 0.43 µM; inactive = the rest
Permitted responses: Y = active, N = inactive

Input: Assay outcome for CN(N=O)C(=O)N[C@@H](C=O)[C@@H](O)[C@H](O)[C@H](O)CO : what was it?
Output: N

Input: Then this molecule: Oc1c(CN2CCCC2)cc(COCc2ccc(Br)cc2)c2cccnc12
Output: N

Input: Then this molecule: O=C(Nc1ccc(Oc2ccc3nc(NC(=O)c4ccccc4)[nH]c3c2)cc1)Nc1cc(C(F)(F)F)ccc1F
Output: N

Input: Then this molecule: CO/N=C(\C)c1cccc(Nc2cc(-c3ccccc3)nc3c(O)cccc23)c1
Output: N

Input: Then this molecule: COc1ccc2nc3cc(Cl)ccc3c(N3CCN(c4ccnc(N5CCOCC5)n4)CC3)c2c1
Output: N

Input: Then this molecule: CNC(=O)c1ccc2cc(C3(O)CCn4cncc43)ccc2c1 (stereo not drawn)
Output: N

Input: Then this molecule: CC(C)(C)c1[nH]cnc1/C=c1\[nH]c(=O)/c(=C/c2ccccc2)[nH]c1=O
Output: Y

Input: Then this molecule: CCOC(=O)c1c2c(n(Cc3ccccc3)c1C)-c1ccccc1C(=O)C2=O
Output: N

---

# Test system: SK-MEL-5 melanoma
# assay_summary: NCI tumour cell line growth inhibition, 48 h
Assignment: determine reported TGI for the given molecules.

Input: Reported TGI, molecule CCOC(=O)C(C)(C(=O)OCC)/C(Cl)=C\Cl : ____
Output: > 100 µM

Input: Then this molecule: CO/N=C(/C(=O)N(C(=O)/C(=N/OC)c1csc(NC(c2ccccc2)(c2ccccc2)c2ccccc2)n1)n1cnn(CC(=O)OC(C)(C)C)c1=O)c1csc(NC(c2ccccc2)(c2ccccc2)c2ccccc2)n1
Output: > 10 µM

Input: Then this molecule: CCOC(=O)c1cc2c(nc1N)-c1ncccc1CC2
Output: > 100 µM

Input: Then this molecule: Cc1ccc(Nc2n[nH]c(=S)s2)cc1
Output: > 100 µM

Input: Then this molecule: Cc1c(C(=O)C/C(=N/NC(=O)C[n+]2ccccc2)C(=O)Nc2ccccc2)[n+](=O)c2ccccc2n1O
Output: > 100 µM

Input: Then this molecule: O=c1[nH]c(=O)n(C2OC(CO)C(O)C2O)c2ccsc12 (stereo unspecified)
Output: > 100 µM

Input: Then this molecule: CCN1C(NN)=NS(=O)(=O)c2ccccc21
Output: > 100 µM

Input: Then this molecule: COc1cc(C=C2N=C(c3ccccc3)N(n3c(-c4ccccc4)nc4ccccc4c3=O)C2=O)cc(OC)c1OC
Output: 56.6 µM

Input: Then this molecule: O=C(Nc1ccc(Cl)cc1F)c1cc(I)ccc1O
Output: 2.53 µM

Input: Then this molecule: CC(=O)O[C@H]1CC[C@@]2(C)C(=CC[C@@H]3[C@@H]2CC[C@]2(C)Nc4c(cnn4S(C)(=O)=O)C[C@@H]32)C1
Output: 30.6 µM

Input: Then this molecule: O=C(N/C(=C\c1cccc([N+](=O)[O-])c1)c1nc2[nH]c(=S)[nH]c(=O)c2[nH]1)c1ccccc1
Output: > 100 µM

---

# Tested on: LOX IMVI melanoma
# assay_summary: NCI tumour cell line growth inhibition, 48 h
Assignment: determine reported TGI for the given molecules.
Reply with just the number (in µM).

Input: Reported TGI, molecule COc1cc(C=C2N=C(c3ccccc3)N(n3c(-c4ccccc4)nc4ccccc4c3=O)C2=O)cc(OC)c1OC : ____
Output: 41.3

Input: Then this molecule: COC1CCC(O)C(/C=C/[N+](=O)[O-])C1 (stereo unspecified)
Output: 3.05

Input: Then this molecule: O=C(c1ccco1)c1nc2cc(F)ccc2[n+]([O-])c1C(F)(F)F
Output: 39.2

Input: Then this molecule: CCCC[N+](CCCC)=c1ccc2nc3c(C)cc(N(CC)CC)cc3sc-2c1
Output: 1.13

Input: Then this molecule: C1=Nc2sc3c(c2C2=NCCN12)CCCC3
Output: 28.2

---

# System: NCI-H460 lung
# assay_summary: NCI tumour cell line growth inhibition, 48 h
property: TGI

Input: Reported TGI, compound CCOC(=O)N(c1ccccc1)c1cc(=O)n2ccccc2n1 : ____
Output: > 100 µM

Input: Then this compound: O=C1N(c2ccccc2)C(=O)C2(SC=NN2Cc2ccccc2)N1c1ccccc1 (stereo unspecified)
Output: > 100 µM

Input: Then this compound: O=C(O)c1cc2cc(c1)N=Cc1ccccc1OCc1cccc(n1)COc1ccccc1C=N2
Output: > 25 µM

Input: Then this compound: CN(C)c1nc2n(CCO)c(-c3ccccc3)c(-c3ccccc3)nc-2c(=O)n1
Output: > 100 µM

Input: Then this compound: O=C(CCl)NC(Cc1ccc(F)cc1)C(=O)O (stereo unspecified)
Output: > 100 µM

Input: Then this compound: O=c1ssc(Cl)c1Nc1c(Cl)ssc1=O
Output: 34.6 µM

---

# Test system: IGROV1 ovarian
# assay_summary: NCI tumour cell line growth inhibition, 48 h
property: TGI

Input: Find TGI (IGROV1 ovarian) for the entry Cn1cc(-c2cnc(-c3cn(C)c4ccccc34)cn2)c2ccccc21
Output: > 50.5 µM

Input: Then this compound: CC1CCC(O)(C(C)(C(=O)O)c2ccccc2)CC1 (centres undefined)
Output: > 100 µM

Input: Then this compound: CCCCOC(=O)NC(Nc1ccc(S(=O)(=O)Nc2ccc(OC)nn2)cc1)(C(F)(F)F)C(F)(F)F
Output: > 100 µM

Input: Then this compound: COC(=O)Nc1nc2ccc(S(=O)(=O)n3nnc4ccccc43)cc2[nH]1
Output: > 100 µM

Input: Then this compound: c1ccc(-c2cc(C3CO3)c3ccccc3n2)cc1 (centres undefined)
Output: 36.6 µM

Input: Then this compound: CCN1C(NN)=NS(=O)(=O)c2ccccc21
Output: > 100 µM

Input: Then this compound: COc1ccc(/C=C2\N=C3Sc4c(nc[nH]c4=O)N3C2=O)cc1
Output: > 100 µM

Input: Then this compound: CCSC1(SCC)CC(Cc2ccc(OC)cc2)N(C=NC(C)(C)C)C1 (centres undefined)
Output: > 100 µM

Input: Then this compound: Cc1ccc(/C(=C\C(=O)C(=O)NC23CC4CC(CC(C4)C2)C3)Sc2ccccc2)cc1
Output: > 10 µM

Input: Then this compound: C[C@@H]1CC[C@@H]2[C@@H]1[C@H](OC(=O)/C=C/c1ccccc1)[C@]1(C3CCCCC3)C[C@@H](NC(=O)CO)[C@@]2(C)O1
Output: 35.5 µM

Input: Then this compound: O=C1Nc2ccccc2S/C1=C\c1cccc(C(F)(F)F)c1
Output: > 100 µM

Input: Then this compound: O=P(NC12CC3CC(CC(C3)C1)C2)(N1CC1)N1CC1
Output: > 100 µM

Input: Then this compound: Cn1nnnc1N/N=C/c1ccccc1
Output: > 10 µM

Input: Then this compound: CC(=O)Nc1ccc(CNc2cc(=O)n(C)c(=O)[nH]2)cc1
Output: > 100 µM
